So I've got a bunch of molecules here, and I need their IC50 values.
- assayProcedure: Inhibition of wild-type HIV-1 reverse transcriptase RNA-dependent DNA polymerase activity assessed as reduction in digoxigenin-11-dUTP incorporation using poly(rA)/oligo(dT) as template/primer incubated for 1 hr
- Set-up: species or system Human immunodeficiency virus 1
Quick reminder: number only, in µM, skip the unit.

Qu. For the molecule COc1ccccc1Cc1sc(NCc2ccc3c(c2)CCO3)nc1-c1ccccc1F , what IC50 is on record?
Ans. 0.02

Qu. Now try COc1ccccc1Cc1sc(NCc2ccc3c(c2)CCO3)nc1-c1ccccc1Cl .
Ans. 0.014

Qu. Now try Cc1ccnc2c1NC(=O)c1cccnc1N2C1CC1 .
Ans. 2.1

Qu. Now try Fc1cc(F)cc(Cc2sc(NCc3ccc4c(c3)CCO4)nc2-c2ccccc2F)c1 .
Ans. 0.064

Qu. Now try Fc1cc(F)cc(Cc2sc(NCc3ccc4c(c3)CCO4)nc2-c2ccccc2Cl)c1 .
Ans. 0.025
